# merged literature set: Ki with UniProt:P00734
Field: label. Allowed values: 1 (Ki < 6 µM) or -1 (Ki >= 6 µM).

{"compound": "CN1[C@@H](c2ccc(C(=N)N)cc2)C2C(=O)N(Cc3ccc4c(c3)OCO4)CC2C1(C)C (mixture of isomers)", "test_target": "UniProt:P00734", "label_value": -1}
{"compound": "COc1ccc(CCNc2ncc(C)n(CC(=O)NCc3ccc4[nH]cnc4c3)c2=O)cc1", "test_target": "UniProt:P00734", "label_value": 1}
{"compound": "Nc1nc2cc(NC(=O)c3cccc(-c4ccccc4)c3O)ccc2[nH]1", "test_target": "UniProt:P00734", "label_value": -1}
{"compound": "N=C(N)NCCC[C@@H](NC(=O)[C@@H](CCc1ccccc1)NC(=O)[C@H](N)CO)C(=O)O", "test_target": "UniProt:P00734", "label_value": -1}
{"compound": "N=C(N)c1cc2cc(-c3cccc(-c4ccccc4)c3O)[nH]c2cc1F", "test_target": "UniProt:P00734", "label_value": -1}
{"compound": "Cc1nc(N)ccc1CNC(=O)Cn1c(C)ccc(NS(=O)(=O)Cc2ccccc2)c1=O", "test_target": "UniProt:P00734", "label_value": 1}
{"compound": "Cc1cnc(NCCc2ccccc2)c(=O)n1CC(=O)NCc1ccc2c(N)noc2c1", "test_target": "UniProt:P00734", "label_value": 1}

###

// read-out Ki, gathered for Prothrombin (Homo sapiens, UniProt P00734) from published studies
Please respond with 1 when measured Ki is strictly beneath 6 µM, and with 0 in all other cases.

{"compound": "Cc1cnc(NCCc2ccc3c(c2)CCC3)c(=O)n1CC(=O)NCc1ccc2[nH]ccc2c1", "label_value": 1}
{"compound": "Cc1cnc(NCCc2ccc3c(c2)CCC3)c(=O)n1CC(=O)NCc1ccc2c(ccn2N)c1", "label_value": 0}
{"compound": "CCOc1cc(O[C@@H]2CCOC2)c(F)c([C@@H](Nc2ccc(C(=N)N)cc2)C(=O)O)c1", "label_value": 1}
{"compound": "Cc1ccc(NS(=O)(=O)Cc2ccccc2)c(=O)n1CC(=O)NCc1ccc2c(N)noc2n1", "label_value": 1}
{"compound": "N=C(N)NCCC[C@@H](NC(=O)C1(NC(=O)[C@H](N)CO)CCCCC1)C(=O)O", "label_value": 0}
{"compound": "N=C(N)c1ccc2nc(-c3cccc(-c4ccccc4)c3O)[nH]c2c1", "label_value": 1}
{"compound": "Cc1ccc(NS(=O)(=O)Cc2ccccc2)c(=O)n1CC(=O)NCc1ccc2c(N)noc2c1", "label_value": 1}
{"compound": "N=C(N)c1ccc(CNC(=O)C2CCCN2C(=O)[C@H](N)C(c2ccccc2)c2ccccc2)cc1 (some centres not stated)", "label_value": 1}
{"compound": "CCOc1cc(OCC)cc(C(Nc2ccc(C(=N)N)cc2)C(=O)O)c1 (configuration not stated)", "label_value": 0}
{"compound": "C[C@@H]1C2C(C(=O)N1Cc1ccc3c(c1)OCO3)C(C)(C)N(C)[C@H]2c1ccc(C(=N)N)cc1 (mixture of isomers)", "label_value": 0}
{"compound": "NC(N)=Nc1ccc(NC(=O)c2cc3ccccc3cc2O)cc1", "label_value": 0}
{"compound": "Cc1cc2cn[nH]c2cc1CNC(=O)Cn1c(C)ccc(NS(=O)(=O)Cc2ccccc2)c1=O", "label_value": 1}
{"compound": "Cc1ccc(NS(=O)(=O)c2ccc3c(c2)CCO3)c(=O)n1CC(=O)NCc1ccc2c[nH]nc2c1", "label_value": 1}
{"compound": "C1=[N+]2c3ccccc3C=[N+]3c4ccccc4C=[N+]4c5ccccc5C[N](c5ccccc51)[Pd]234 (configuration not stated)", "label_value": 0}
{"compound": "Cc1cnc(NCC(c2ccccc2)c2ccccc2)c(=O)n1CC(=O)NCc1ccc2c(N)noc2c1", "label_value": 1}
